Literature compilation of IC50 measurements on E3 ubiquitin-protein ligase CBL-B (Homo sapiens).
Sequence (Q13191 whole entry): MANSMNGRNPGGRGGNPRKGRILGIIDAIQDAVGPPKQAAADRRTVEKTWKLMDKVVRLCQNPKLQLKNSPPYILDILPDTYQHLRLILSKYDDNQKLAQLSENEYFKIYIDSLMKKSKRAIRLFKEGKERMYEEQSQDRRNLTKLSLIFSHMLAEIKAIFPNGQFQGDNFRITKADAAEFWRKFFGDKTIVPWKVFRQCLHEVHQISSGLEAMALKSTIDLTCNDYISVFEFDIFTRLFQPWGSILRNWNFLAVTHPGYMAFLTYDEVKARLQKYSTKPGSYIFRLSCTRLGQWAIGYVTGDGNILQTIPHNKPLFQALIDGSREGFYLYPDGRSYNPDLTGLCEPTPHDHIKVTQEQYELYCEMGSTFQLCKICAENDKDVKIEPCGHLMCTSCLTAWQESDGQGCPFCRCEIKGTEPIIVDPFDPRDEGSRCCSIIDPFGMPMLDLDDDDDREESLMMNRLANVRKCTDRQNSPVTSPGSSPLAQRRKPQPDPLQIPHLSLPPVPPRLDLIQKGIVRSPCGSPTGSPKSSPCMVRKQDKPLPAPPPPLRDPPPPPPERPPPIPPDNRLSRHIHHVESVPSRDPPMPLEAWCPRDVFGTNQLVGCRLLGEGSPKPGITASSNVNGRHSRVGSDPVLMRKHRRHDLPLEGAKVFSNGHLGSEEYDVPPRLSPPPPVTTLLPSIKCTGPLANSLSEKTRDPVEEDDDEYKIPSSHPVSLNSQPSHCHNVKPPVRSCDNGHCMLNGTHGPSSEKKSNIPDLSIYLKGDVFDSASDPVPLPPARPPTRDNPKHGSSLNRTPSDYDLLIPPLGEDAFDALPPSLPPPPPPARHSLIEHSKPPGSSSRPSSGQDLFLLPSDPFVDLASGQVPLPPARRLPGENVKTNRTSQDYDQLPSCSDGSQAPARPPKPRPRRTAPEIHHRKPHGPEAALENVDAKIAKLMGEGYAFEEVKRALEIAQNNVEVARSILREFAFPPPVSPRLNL
Parameter: IC50 (nM)

These solved cases illustrate the format of a correct answer.
- Compound: "Cn1c(C(=O)NC[C@H]2CC3N=C(N)NC3[C@@H](c3c[nH]c(N)n3)[C@@H]2CNC(=O)c2cc(Br)c[nH]2)cc(Br)c1Br (stereo not given in full)"
  Assay value: 18000
- Compound: "CCOc1cc([C@]2(c3nncn3C)C[C@@H](C)C2)cc(N2Cc3c(cc(CNC4(C)CCC4)cc3C(F)(F)F)C2=O)n1"
  Assay value: 4

a: Cn1cc(Br)cc1C(=O)NC[C@@H]1[C@@H](CNC(=O)c2ccc(Br)[nH]2)CC2N=C(N)NC2[C@H]1c1c[nH]c(N)n1 (stereo not given in full)
b: C[C@@H](NC1(C)CCC1)c1cc2c(c(C(F)(F)F)c1)CN(c1cccc(C3([C@@H](F)c4nncn4C)COC3)c1)C2=O
c: C[C@H](NC1(C)CCC1)c1cc2c(c(C(F)(F)F)c1)CN(c1cccc([C@@H](c3nncn3C)C3COC3)c1)C2=O
# input Sort these compounds on IC50 so the largest reading comes first. Order the labels as requested and give them as your answer.
# output a, b, c
